# Test system: S. Typhi PhoP-promoter GFP reporter, fluorescence, 4 h
# PROCEDURE DETAILS: PhoP regulon inhibitor project modified counter assay, GFP fluorescence readout, dose response (AID 1985)
// reported IC50 per item

Some molecules with recorded IC50:
1) Cc1ccc(-c2c[n+](Cc3ccc(Cl)cc3)c3n2CCC3)cc1    90.3 µM
2) CCn1cc(C(=O)O)c(=O)c2cnc(N3CCNCC3)nc21    113 µM
3) CCCCNC1=CC(=O)C(=O)c2ccccc21    104 µM
4) COc1cc(Br)cc(/C=N/c2ncn[nH]2)c1O    81.3 µM
5) CCCCCCCCCCOC(=O)Cn1c(COc2ccccc2C)[n+](C)c2ccccc21    21.3 µM
6) c1ccc2oc(-c3csc(NCC4CCCO4)n3)cc2c1 (stereo unspecified)    142 µM
7) O=c1cc(-c2ccc(O)cc2)oc2c(O)c(O)c(O)c(O)c12    40.2 µM
8) O=C(CN1CC(c2ccccc2)CC1=O)N/N=C/c1cc(Br)ccc1O (stereo unspecified)    46.4 µM
9) CCOC(=O)c1c(-c2ccccc2)oc2ccc(OCC(O)CNCCN(C)C)cc12 (stereo unspecified)    80.2 µM
10) CC(Nc1nc(N2CCCC2)nc2ccccc12)c1ccccc1 (stereo unspecified)    149 µM

Recorded IC50 for "COc1ccc(NC(=O)c2[nH]ncc2[N+](=O)[O-])cc1" , please?
40.3 µM

---

# System: S. Typhi PhoP-promoter GFP reporter, fluorescence, 4 h
# PROCEDURE DETAILS: PhoP regulon inhibitor project modified counter assay, GFP fluorescence readout, dose response (AID 1985)
// reported pIC50 per item
The value called pIC50 is obtained by taking minus log10 of the concentration in mol/L.

Some molecules with recorded pIC50:
1. CCc1ccc(NC(=O)Nc2ccncc2)cc1    4.29
2. CC1(C)N=C(N)N=C(N)N1c1ccc(Oc2ccc(Cl)cc2)c(Cl)c1    4.37
3. Oc1[nH]c2ccc(Br)cc2c1N=NC(=S)N1CCOCC1    4.33

Recorded pIC50 for "CC[n+]1c(/C=C/C=C/c2ccc(N(C)C)cc2)sc2ccccc21" , please?
4.45

Recorded pIC50 for "CC(C)N1CSC(=S)N(Cc2ccccc2)C1" , please?
4.22

Recorded pIC50 for CC(NCc1ccc(Cl)cc1)C(O)c1ccccc1 (centres undefined) , please?
3.89

Recorded pIC50 for "O=Cc1ccc(O)cc1O" , please?
3.96

Recorded pIC50 for "Cc1nonc1C(=O)N/N=C/c1ccc(O)cc1O" , please?
4.53

Recorded pIC50 for "CC(C)(C)c1ccc(OCCCCCCN2CCNCC2)cc1" , please?
3.90

Recorded pIC50 for Cc1ccc(C(OCC(O)CNCc2ccc(F)cc2)c2ccccc2)cc1 (centres undefined) , please?
4.13

Recorded pIC50 for "O=C1OCC(CO)(CO)N=C1NNc1ccc(Cl)c(Cl)c1" , please?
4.58

Recorded pIC50 for "O=C(Oc1ccc[nH]c1=O)c1cc([N+](=O)[O-])cc([N+](=O)[O-])c1" , please?
4.34

Recorded pIC50 for "CCn1cc(C(=O)NCc2ccc3c(c2)OCO3)c(=O)c2cc(F)c(N3CCN(C(=O)c4ccco4)CC3)cc21" , please?
3.97
